Molecular target: T1, GFP-9S library array, motif 4 ND N98E;D124Y (synthetic construct, N98E;D124Y)
T1 chain: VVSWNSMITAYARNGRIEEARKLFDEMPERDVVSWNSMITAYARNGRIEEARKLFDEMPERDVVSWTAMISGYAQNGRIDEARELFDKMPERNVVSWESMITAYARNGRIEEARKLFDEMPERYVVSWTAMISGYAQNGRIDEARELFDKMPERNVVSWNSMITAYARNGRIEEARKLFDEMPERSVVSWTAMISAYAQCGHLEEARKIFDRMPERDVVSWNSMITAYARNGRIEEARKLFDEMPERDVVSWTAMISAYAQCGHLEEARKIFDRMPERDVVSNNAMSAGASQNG
Assay: high-throughput RNA pulldown from lysate on Ni-NTA beads; HRP: 50 mM Tris pH 8, 150 mM NaCl, 1 mM beta-mercaptoethanol, 50 ug/ml BSA, 3 ug/ml yeast RNA, 0.5% heparin; ITC and FP: Tris pH 8, 200 mM KCl, 5% glycerol; MST: 50 mM Tris pH 8, 200 mM NaCl, 1 mM DTT, BSA, heparin, 0.05% Tween 20
Conditions: tags: N-terminal His-eGFP; label: 5' IRDye 800CW
Overview of reported Kd across a group of binders:
observation.type: Kd (nM)

binder | quantitative.readout
AUUAAACGUGA (ssRNA) [IR-rpoA-A] | 450
AUUAUACGUGA (ssRNA) [IR-rpoA-U] | 480
